Target: UniProt Q9UHD2
Sequence (Q9UHD2 whole entry): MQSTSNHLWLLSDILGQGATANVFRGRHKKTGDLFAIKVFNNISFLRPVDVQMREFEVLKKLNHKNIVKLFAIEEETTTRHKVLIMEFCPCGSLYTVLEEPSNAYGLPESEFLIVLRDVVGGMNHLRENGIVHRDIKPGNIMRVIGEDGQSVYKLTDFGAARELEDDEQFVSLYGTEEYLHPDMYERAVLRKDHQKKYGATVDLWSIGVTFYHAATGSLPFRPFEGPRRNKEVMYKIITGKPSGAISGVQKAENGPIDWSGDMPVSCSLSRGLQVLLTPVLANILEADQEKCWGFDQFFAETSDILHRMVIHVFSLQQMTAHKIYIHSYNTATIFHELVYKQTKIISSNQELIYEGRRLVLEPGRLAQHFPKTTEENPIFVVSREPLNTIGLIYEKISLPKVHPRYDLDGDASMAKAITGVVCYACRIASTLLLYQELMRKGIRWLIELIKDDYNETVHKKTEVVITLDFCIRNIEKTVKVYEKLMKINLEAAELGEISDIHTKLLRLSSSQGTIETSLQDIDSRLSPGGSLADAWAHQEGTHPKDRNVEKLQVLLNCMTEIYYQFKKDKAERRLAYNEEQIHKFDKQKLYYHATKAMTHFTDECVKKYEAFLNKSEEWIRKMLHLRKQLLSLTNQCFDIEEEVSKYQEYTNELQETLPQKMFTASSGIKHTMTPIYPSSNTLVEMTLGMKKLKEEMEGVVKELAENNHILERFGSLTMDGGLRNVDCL
observable: IC50 (µM)

Please fill in: IC50 reported for O=C(NCc1ccco1)c1cccc(-c2cnc3[nH]cc(C4=CCN(C(=O)NC5CCCC5)CC4)c3c2)c1 [Example 67] = 0.41

So for COc1ccc(-c2cnc3[nH]cc(C4=CCN(C(=O)c5cccs5)CC4)c3c2)cc1OC [Example 191] , the logged IC50 turned out to be 0.11

GET /value?item= CC(C)(C)OC(=O)N1CC=C(c2c[nH]c3ncc(-c4ccc(N5CCOCC5)nc4)cc23)CC1 [Example 157] &field=IC50 returns 0.36

// field: IC50; key: CCCS(=O)(=O)c1ccc(-c2cnc3[nH]cc(C4=CCN(C(=O)NC5CCCC5)CC4)c3c2)cc1 [Example 55] ; value = 0.051

I: CC1C=C(c2c[nH]c3ncc(-c4ccc(CN5CCOCC5)s4)cc23)CCN1C(=O)NC1CCCC1 (stereo not shown) [Example 106]
II: O=C(OC1CCCC1)N1CC=C(c2c[nH]c3ncc(-c4ccc(S(=O)(=O)N5CCOCC5)cc4)cc23)CC1 [Example 181]
[ask] Rank I against II by their IC50 values and give the higher one. Provide the label of your selected option as the answer.
[reply] II
(II: 0.37 µM, I: 0.0031 µM)
